B1: mRNA-splicing (parent)
chain: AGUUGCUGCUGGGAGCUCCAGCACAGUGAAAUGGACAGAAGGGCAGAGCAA

Variants of: B1
Test: exon inclusion enrichment index; higher = more inclusion; WT1 exon 5 minigene, HEK293
Measurement Type: exon inclusion enrichment index

# Variant Descriptor, Measurement Type, Readout Number
measured = [
    ("C22U A23G", "exon inclusion enrichment index", 1.77),
    ("G5C C6U G8C C9U U10C A45U G46C", "exon inclusion enrichment index", 1.3),
    ("C6A U7C C9A U10C G33U", "exon inclusion enrichment index", 1.97),
    ("G5C C6A U7C G8A U10A A39G", "exon inclusion enrichment index", 0.0326),
    ("G5C C6A U7C G8A", "exon inclusion enrichment index", 0.613),
    ("C6A U7C C9A U10C G43A", "exon inclusion enrichment index", 4.63),
    ("G5C C6U G8C C9U U10C A39C A40U", "exon inclusion enrichment index", 1.13),
    ("G5A C6U U7A G8U C9A G12A G13A", "exon inclusion enrichment index", 0.027),
    ("G5U G8U C9U A39G A40G", "exon inclusion enrichment index", 0.00566),
    ("G5A U7C G8A U10C G41U", "exon inclusion enrichment index", 2.09),
    ("G5A U7C G8A U10C A23U C24G", "exon inclusion enrichment index", 2.69),
    ("G5C C6U G8C C9U U10C A47G G48A", "exon inclusion enrichment index", 1.24),
    ("G46U", "exon inclusion enrichment index", 0.0964),
    ("C6A U7A C9A U10A A25C G26A", "exon inclusion enrichment index", 1.67),
    ("G2A G5C C6A U7C G8A U10A", "exon inclusion enrichment index", 0.316),
    ("G5U C6A U7C G8A U10C", "exon inclusion enrichment index", 1.56),
    ("G5A C6U U7A G8U C9A A30C A31C", "exon inclusion enrichment index", 0.126),
    ("C6A U7A C9A U10A A14G G15U", "exon inclusion enrichment index", 0.274),
    ("G5C C6U G8C C9U U10C G46U A47U", "exon inclusion enrichment index", 2.05),
    ("G5A C6G U7G C9A G43C C44U", "exon inclusion enrichment index", 0.000823),
    ("C6A U7C C9A U10C A40U G41A", "exon inclusion enrichment index", 0.347),
    ("U17C C18G", "exon inclusion enrichment index", 0.369),
]
